// reported Kd per item
target: UniProt:P01116; experiment: Binding to KRAS by surface plasmon resonance (SPR), dissociation constant KD; settings: 1:1 binding model

cpd smiles	Kd
CCC(CC)[C@H]1C(=O)N(C)[C@H](C(=O)N(C)C)CC(=O)N(C)[C@@H](COC)C(=O)N[C@@H]([C@@H](C)CC)C(=O)N(C)CC(=O)N(C)[C@H]2C/C=C\CCN(C2=O)[C@@H](Cc2ccc(C)cc2)C(=O)N(C)CC(=O)N[C@@H](CCc2ccc(Cl)c(Cl)c2)C(=O)N2C[C@H](OC(C)C)C[C@H]2C(=O)N(C)C2(CC(C)(C)C2)C(=O)N1C	0.37 nM

// below: Kd requested for another molecule
Query: Item under review: CCC[C@H]1C(=O)N[C@@H]([C@@H](C)CC)C(=O)N(C)CC(=O)N(C)[C@H]2C/C=C\CCN(C2=O)[C@@H](Cc2ccc(C)cc2)C(=O)N(C)CC(=O)N[C@@H](CCc2ccc(Cl)c(Cl)c2)C(=O)N2C[C@H](OCC)C[C@H]2C(=O)NC2(CC(C)(C)C2)C(=O)N(C)[C@@H](CC2CCC2)C(=O)N(C)[C@H](C(=O)N(C)C)CC(=O)N1C . Reported Kd?
Response: 0.56 nM

----------
biological target: UniProt:P01116; assay: Binding to KRAS by surface plasmon resonance (SPR), dissociation constant KD; settings: 1:1 binding model
Entries and their measured pKd follow.
# reply with the number alone; pKd is -log10 of concentration in mol/L

Reference set (2 entries):
compound	subject of test	pKd
CCC(CC)[C@H]1C(=O)N(C)[C@H](C(=O)N(C)C)CC(=O)N(C)[C@@H](CC2CC2)C(=O)N[C@@H]([C@@H](C)CC)C(=O)N(C)CC(=O)N(C)[C@H]2C/C=C\CCN(C2=O)[C@@H](CC2CCC(F)(F)CC2)C(=O)N(C)CC(=O)N[C@@H](CCc2ccc(C(F)(F)F)c(OC)c2)C(=O)N2C[C@@H](C)C[C@H]2C(=O)NC2(CC(C)(C)C2)C(=O)N1C [PP2494]	UniProt:P01116	8.74
CCO[C@@H]1C[C@H]2C(=O)NC3(CC(C)(C)C3)C(=O)N(C)[C@@H](C3CCCC3)C(=O)N(C)[C@H](C(=O)N(C)CC)CC(=O)N(C)[C@@H](CC(C)C)C(=O)N[C@@H]([C@@H](C)CC)C(=O)N(C)CC(=O)N(C)[C@H]3C/C=C\CCN(C3=O)[C@@H](Cc3ccc(C(F)F)cc3)C(=O)N(C)CC(=O)N[C@@H](CCc3ccc(C4CC4)c(Cl)c3)C(=O)N2C1 [PP3155]	UniProt:P01116	9.19

# input for lookup
Query: Any idea what its pKd is? The compound is CCC[C@H]1C(=O)N[C@@H]([C@@H](C)CC)C(=O)N(C)CC(=O)N(C)[C@H]2C/C=C\CCN(C2=O)[C@@H](Cc2ccc(C)cc2)C(=O)N(C)CC(=O)N[C@@H](CCc2ccc(CC)c(Cl)c2)C(=O)N2C[C@H](OCC)C[C@H]2C(=O)NC2(CC(C)(C)C2)C(=O)N(C)[C@@H](C(CC)CC)C(=O)N(C)[C@H](C(=O)N(C)C)CC(=O)N1C [PP2779]
Response: 8.47

----------
Examples of compounds with documented Kd follow.
target: GDP-bound KRAS wild-type protein (Homo sapiens); assay: Binding to KRAS by surface plasmon resonance (SPR), dissociation constant KD; conditions: 1:1 binding model
Where a SMILES comes first, the peptide text is derived from it. Bridges are numbered along the chain shown (N, C = ends). [ ]: non-standard residue; d: D form. The star is where a group is joined. hPhe(3-Cl-4-CF3) = N[C@@H](CCc1ccc(C(F)(F)F)c(Cl)c1)C(=O)O; NPrPhe(4-CF3) = CCCN[C@@H](Cc1ccc(C(F)(F)F)cc1)C(=O)O; NMeGly(cPent) = CN[C@H](C(=O)O)C1CCCC1; NMeD = CN[C@@H](CC(=O)O)C(=O)O; NMeL = CN[C@@H](CC(C)C)C(=O)O; Morpholide = C1CN(*)CCO1; Ac5c = NC1(C(=O)O)CCCC1; Aze = O=C(O)[C@@H]1CCN1; Abu = CC[C@H](N)C(=O)O; Sar = CNCC(=O)O
The reply should contain only the number, in nM.

compound	units	Kd
CCCN1C(=O)CN(C)C(=O)[C@@H]2CCN2C(=O)[C@H](CC)NC(=O)[C@H](CC(C)C)N(C)C(=O)C[C@@H](C(=O)N2CCOCC2)N(C)C(=O)[C@H](C2CCCC2)N(C)C(=O)C2(CCCC2)NC(=O)[C@@H]2CCCN2C(=O)[C@H](CCc2ccc(C(F)(F)F)c(Cl)c2)NC(=O)CN(C)C(=O)[C@@H]1Cc1ccc(C(F)(F)F)cc1 [PP0303] ([NMeL][Abu][Aze][Sar][NPrPhe(4-CF3)][Sar][hPhe(3-Cl-4-CF3)]P[Ac5c][NMeGly(cPent)][NMeD]-Morpholide; lactam N-11)	nM	4
CC[C@H](C)[C@@H]1NC(=O)[C@H](COC)N(C)C(=O)C[C@@H](C(=O)N(C)C)N(C)C(=O)[C@H](C2CCCC2)N(C)C(=O)C2(CC(C)(C)C2)NC(=O)[C@@H]2C[C@@H](OC3CCCC3)CN2C(=O)[C@H](CCc2cc(F)c(C(F)(F)F)c(F)c2)NC(=O)CN(C)C(=O)[C@H](CC2CCCCC2)N2CC/C=C\C[C@@H](C2=O)N(C)C(=O)CN(C2CC2)C1=O	nM	3
CCO[C@@H]1C[C@H]2C(=O)NC3(CC(C)(C)C3)C(=O)N(C)[C@@H](C3CCCC3)C(=O)N(C)[C@H](C(=O)N(C)CC)CC(=O)N(C)[C@@H](CC(C)C)C(=O)N[C@@H]([C@@H](C)CC)C(=O)N(C)CC(=O)N(C)[C@H]3C/C=C\CCN(C3=O)[C@@H](Cc3ccc(C(F)F)cc3)C(=O)N(C)CC(=O)N[C@@H](CCc3cc(F)c4c(c3)OCC4)C(=O)N2C1	nM	2.9
CC[C@H](C)[C@@H]1NC(=O)[C@H](COC)NC(=O)C[C@@H](C(=O)N(C)CC)N(C)C(=O)[C@H](C2CCCC2)N(C)C(=O)C2(CC(C)(C)C2)NC(=O)[C@@H]2C[C@@H](F)CN2C(=O)[C@H](CCc2ccc(C(F)(F)F)c(OC)c2)NC(=O)CN(C)C(=O)[C@H](Cc2ccc(C(F)(F)F)cc2)N2CC/C=C\C[C@@H](C2=O)N(C)C(=O)CN(C)C1=O	nM	0.084

Attention now shifts to the item below.
Query: Need Kd, item CCC(CC)[C@H]1C(=O)N(C)[C@H](C(=O)N(C)C)CC(=O)N(C)[C@@H](C(C)C)C(=O)N[C@@H]([C@@H](C)CC)C(=O)N(C)CC(=O)N(C)[C@H]2C/C=C\CCN(C2=O)[C@@H](CC2CCC(F)(F)CC2)C(=O)N(C)CC(=O)N[C@@H](CCc2cc(F)c(C(F)(F)F)c(F)c2)C(=O)N2C[C@@H](C)C[C@H]2C(=O)NC2(CC(C)(C)C2)C(=O)N1C
Response: 6.2

----------
Molecular target: GDP-bound KRAS wild-type protein (Homo sapiens, UniProt P01116)
Sequence (P01116 1-188 isoform P01116-2): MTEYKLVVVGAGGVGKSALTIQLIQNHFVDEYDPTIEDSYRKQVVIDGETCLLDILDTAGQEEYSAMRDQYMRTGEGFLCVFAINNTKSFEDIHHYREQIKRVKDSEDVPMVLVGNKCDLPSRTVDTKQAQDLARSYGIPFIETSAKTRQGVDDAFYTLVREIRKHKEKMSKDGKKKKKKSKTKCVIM
Experiment: Binding to KRAS by surface plasmon resonance (SPR), dissociation constant KD
Conditions: Single Cycle Kinetics, 1:1 binding model
Experimental: Surface plasmon resonance was used to analyze the binding affinity of compounds for KRAS, NRAS, and HRAS. […] The resulting sensorgram was subjected to curve fitting based on a 1:1 binding model on Biacore Insight Evaluation Software or T200 Evaluation Software, and thereby the dissociation constant KD of each compound with respect to KRAS, NRAS, and HRAS was determined. […]
test readout: Kd (nM)
Use nM as the unit, but write only the number.

Query: What value of Kd has been recorded for this entry: CCO[C@@H]1C[C@H]2C(=O)NC3(CCC3)C(=O)N(C)[C@@H](C3CCCC3)C(=O)N(C)[C@H](C(=O)N3CCOCC3)CC(=O)N(C)[C@@H](Cc3cccs3)C(=O)N[C@@H]([C@@H](C)CC)C(=O)N(C)CC(=O)N(C)[C@H]3CCCCCN(C3=O)[C@@H](Cc3ccc(F)cc3)C(=O)N(C)CC(=O)N[C@@H](CCc3cc(F)c(C(F)(F)F)c(F)c3)C(=O)N2C1 [PP1183]
Response: 0.26

Query: Param item: CC[C@H](C)[C@@H]1NC(=O)[C@H](CC2CCC2)N(C)C(=O)C[C@@H](C(=O)N(C)C)N(C)C(=O)[C@H](C2CCCC2)N(C)C(=O)C2(CCC2)N(C)C(=O)[C@@H]2C[C@@H](C)CN2C(=O)[C@H](CCc2cc(F)c(C(F)(F)F)c(F)c2)NC(=O)CN(C)C(=O)[C@H](Cc2ccc(C)cc2)N2CC/C=C\C[C@@H](C2=O)N(C)C(=O)CN(C)C1=O [PP1803]
Response: 0.1
